Tested on: HS 578T breast
Test: NCI-60 one-dose screen, 48 h (100 = growth as untreated, 0 = no growth, -100 = all killed)
Settings: 10 µM unless noted
Description: Growth inhibition of the HS 578T human tumor cell line is measured as a screen for anti-cancer activity. Cells are grown in 96 well plates and exposed to the test compound for 48 hours. Compounds are tested at a single concentration, which is 10^-5 M for most compounds. The reported endpoint is percent growth (GI% or GIPRCNT), where numbers from 0 - 100% represent growth inhibition, and numbers from -100% - 0 represent cell death. For example, a value of 40 represents 60% growth inhibition. […]
This is part of a sample that, as a whole, favours compounds with a hit. Of some 83,000 tested, about 20% had one in any assay.
value_type: growth (%)

C=CC(=O)Nc1ccc2ncnc(Nc3cccc(NS(=O)(=O)CCC)c3Cl)c2c1 = 20.6
CCN=c1sc2c(n1NC(=O)c1cc3ccc1CCc1ccc(cc1)CC3)C(=O)c1ccccc1C2=O = -8.98
Nc1cc(-c2ccc(Cl)cc2)nn1-c1nc(-c2ccc(Br)cc2)cs1 = 98
Cc1c(C)c2c(c(C)c1OC(=O)CCC(=O)[O-])CCC(C)(CCCCCCCCCCC[P+](c1ccccc1)(c1ccccc1)c1ccccc1)O2 (stereo not drawn) = -15
Cn1cc(-c2nc(-c3c[nH]c4ccncc34)cs2)c2cc(F)ccc21 = -44.9
C#Cc1cccc(Nc2ncnc3ccc(-c4cnc(Cl)c(NS(C)(=O)=O)c4)cc23)c1 = -21.4
COc1cc(CNC(=O)CCCC/C=C/C(C)C)ccc1OCc1cn(-c2ccc(C(F)(F)F)cc2)nn1 = 80.4
CC(=O)CC(=O)c1ccccc1.[Cu+2] = 119
CC1(C)CC[C@]2(CO)CC[C@]3(C)C(=CC[C@@H]4[C@@]5(C)CCNCC(C)(C)[C@@H]5CC[C@]43C)[C@@H]2C1 = 96.7
COc1ccc(Cn2cc3c(c2)-c2oncc2CC3)cc1 = 70.9
CCCCCCCCCCCCCC[n+]1ccc2c(C)c3c(c(C)c2c1)c1cc(O)ccc1n3CC = -41.3
Cc1cc2c(C(C)C)c(O)c(O)c(/C=N/O)c2c(O)c1-c1c(C)cc2c(C(C)C)c(O)c(O)c(/C=N/O)c2c1O = 41.9
COc1cc(OCc2cccc(-c3ccccc3)c2C)cc(OC)c1CN1CCCCC1C(=O)NCCOCCOCCN (stereo not drawn) = 84.5

---

Tested on: K-562 leukemia
Assay: NCI-60 one-dose screen, 48 h
Settings: 10 µM unless noted
Compounds without any hit were thinned out: in the full panel of roughly 83,000, 20% have a hit. Calls of active or inactive are those of the source. The calls were made as follows: active = growth percent below 10; inactive = the rest.
Classes used: active, inactive

CN1CCN(CC(=O)N(C)c2ccc(N=C(c3ccccc3)c3c(O)[nH]c4ccc([N+](=O)[O-])cc34)cc2)CC1 = active
CC(C)(C)c1ccc(C(=O)Nc2sc3c(c2C#N)CCC(=O)C3)cc1 = active
COc1cc(/C=N/NC(=O)c2ccc3nc(-c4ccc(Cl)cc4)[nH]c3c2)cc(OC)c1OC = inactive
COC(=O)CNC(=O)c1ccc(NC(=O)c2[nH]c(C)c(Cl)c2Cl)c(O[C@H]2CCNC2)c1 = inactive
COC(=O)[C@@H](Cc1c[nH]c2ccccc12)NC[C@@H](O)CN1C(=O)/C(=C\c2cc(OC)c(OC)c(OC)c2)c2ccccc21 = inactive
Cc1[nH]c(C(=O)Nc2ccc(C(N)=O)cc2OC(C)C)c(Cl)c1Cl = inactive
O=C(Nc1ccc2[nH]ncc2c1)c1csc(Nc2ccccc2)n1 = inactive
COC1CC(O)C2=C(CC3C(/C(C)=C\CC=C(C)C)CCC3(C)O2)C1=O (centres undefined) = inactive
CCCCCCC/C=N/NC(=O)c1ccc(-n2cc(-c3ccccc3)nn2)cc1 = inactive
O=c1c(Cc2ccc(F)cc2)cc(-c2ccccc2)nn1C/C(=N/O)c1ccccc1 = inactive
Cc1ccc(C2=Nc3c(N)nc(N)nc3NC(c3cccc(Nc4ccnc5cc(C(F)(F)F)ccc45)c3)C2)cc1 (centres undefined) = active
Cc1[nH]c(C2CC(c3ccc(C(F)(F)F)c(F)c3)=NN2C)c(C)c1C(=O)NCC(F)(F)F (centres undefined) = inactive
CCOC(=O)c1c2c(n3ccc(NC(=O)CCN4CCCC4)cc13)C(=O)c1ncccc1C2=O = active
COC(=O)CCc1c(/C=C2\N=C(c3ccc[nH]3)C=C2OC)[nH]c(C)c1C(=O)OCc1ccccc1 = active
O=C(NC1CCCCCC1)c1ccc2c(=O)n3c(nc2c1)CCCCC3 = inactive
O=S(=O)(Nc1ccc(Br)cc1)c1ccc(-c2cnc(C3CC3)o2)cc1 = inactive
Cc1c(Cl)cccc1NC(=O)c1sc2nc3c(cc2c1N)CCCC3 = inactive
COc1ccc(CNc2c3ccccc3nc3ccccc23)cc1OC = active
CCOC(=O)CC1CSC(N/N=C(/C)c2cccc(C(F)(F)F)c2)=N1 (centres undefined) = inactive

The reported numbers originate from PubChem BioAssay (NCI).
